Target: SARS-COV-2 Wuhan (WT) RBD (SARS-COV-2, UniProt P0DTC2 319-541)
Exercise: for every item that follows, state its recorded Kd.
Give bare numbers, in nM.

{"BINDER": "BP2A6 Nb-huFc (Fc fusion) EVQLQASGGGFVQPGGSLRLSCAASGQTFSHYIMGWFRQAPGKEREFVSAISAGQGHATYYADSVKGRFTISRDNSKNTVYLQMNSLRAEDTATYYCAKYQDTIAPLYWGQGTQVTVSS", "ENDPOINT UNIT": "nM", "QUANTITATIVE READOUT": 0.0766}

Here is another binder to look at.
IN: Tell me measured Kd for DP4F2 Nb-huFc (Fc fusion) EVQLQASGGGFVQPGGSLRLSCAASGTTYSERVMGWFRQAPGKEREFVSAISSGQSDQTYYYADSVKGRFTISRDNSKNTVYLQMNSLRAEDTATYYCAPFAGDANLPREWYWGQGTQVTVSSA please.
OUT: 9.51

Data provenance is patent US12091446.
